target-under-test: BaF3 cell lines stably transfected with kinase EGFR L858R/T790M (Homo sapiens, UniProt P00533, T790M/L858R, cells depend on it)
Sequence (P00533 whole entry T790M/L858R): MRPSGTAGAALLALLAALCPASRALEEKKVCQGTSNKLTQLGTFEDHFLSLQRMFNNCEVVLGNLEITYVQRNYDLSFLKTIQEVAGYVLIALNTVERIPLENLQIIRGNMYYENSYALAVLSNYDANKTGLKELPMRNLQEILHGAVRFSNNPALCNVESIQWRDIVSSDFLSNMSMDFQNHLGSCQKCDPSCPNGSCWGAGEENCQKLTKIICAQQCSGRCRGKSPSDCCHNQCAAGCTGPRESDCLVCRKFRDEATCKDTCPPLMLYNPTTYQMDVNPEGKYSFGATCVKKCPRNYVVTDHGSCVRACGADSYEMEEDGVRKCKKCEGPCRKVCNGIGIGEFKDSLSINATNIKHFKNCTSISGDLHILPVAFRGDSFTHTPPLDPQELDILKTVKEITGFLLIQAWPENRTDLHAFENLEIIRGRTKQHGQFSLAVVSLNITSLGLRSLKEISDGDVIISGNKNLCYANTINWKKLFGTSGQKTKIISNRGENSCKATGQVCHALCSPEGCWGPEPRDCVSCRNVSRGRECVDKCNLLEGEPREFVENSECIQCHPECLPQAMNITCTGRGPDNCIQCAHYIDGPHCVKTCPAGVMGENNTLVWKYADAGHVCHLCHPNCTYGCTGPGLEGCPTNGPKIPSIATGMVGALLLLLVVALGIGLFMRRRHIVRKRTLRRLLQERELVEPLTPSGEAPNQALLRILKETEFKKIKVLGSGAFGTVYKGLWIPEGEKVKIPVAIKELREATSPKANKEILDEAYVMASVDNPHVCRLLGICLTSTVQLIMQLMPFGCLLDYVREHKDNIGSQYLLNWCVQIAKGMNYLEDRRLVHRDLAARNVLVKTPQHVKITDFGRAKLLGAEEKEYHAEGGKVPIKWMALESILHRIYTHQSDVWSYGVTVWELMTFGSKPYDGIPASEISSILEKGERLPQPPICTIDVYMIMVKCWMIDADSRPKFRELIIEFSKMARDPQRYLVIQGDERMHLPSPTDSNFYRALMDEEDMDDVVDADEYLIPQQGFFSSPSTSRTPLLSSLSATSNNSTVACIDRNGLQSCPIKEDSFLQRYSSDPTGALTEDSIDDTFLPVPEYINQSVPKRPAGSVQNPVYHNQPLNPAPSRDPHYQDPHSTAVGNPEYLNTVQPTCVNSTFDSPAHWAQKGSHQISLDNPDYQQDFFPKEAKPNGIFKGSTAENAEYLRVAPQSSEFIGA
method: Growth inhibition of BaF3 cell line stably transfected with kinase EGFR L858R/T790M (MTS)
Type: cell-based
test-parameters: 48 h, read-out: growth inhibitory activity IC50, L858R/T790M
measurement-name: GI50

Please review the entries below; each comes with its answer.
>>> print(df.to_string())
                                        smi     assay_value
0  C=Cc1cnc(Nc2cc(CC)c(N3CCC(N4CCN(C)CC4)CC3)cc2OC)nc1Nc1ccc2nccnc2c1NS(=O)(=O)C(C)C  500 to 2500 nM
1  C=Cc1cnc(Nc2cc(CC)n(C)n2)nc1Nc1ccc2nccnc2c1N(C)S(C)(=O)=O    50 to 500 nM
2  C=Cc1cnc(Nc2cc(CC3CC3)c(N3CCC(N4CCN(C)CC4)CC3)cc2OC)nc1Nc1ccc2nccnc2c1S(=O)(=O)NC    50 to 500 nM

As a next step, examine the compound that follows.
Please list GI50 recorded for the compound C=Cc1cnc(Nc2cc(C3CC3)c(N3CCC(N4CCN(C)CC4)CC3)cc2OC)nc1Nc1ccc2nccnc2c1S(=O)(=O)NC 50 to 500 nM
